Kindly supply the reported relative viability values for the records listed here.
# System: NCI-H2023
# testMethodNotes: relative viability (nuclei count vs DMSO), 5 days (fraction); higher = more cells survive
# conditionDescription: first compound 0.08 µM
One number for each entry.

compound	measurement
Oc1nc(-c2ccc(C(F)(F)F)cc2)nc2c1CSCC2 [XAV939] + O=C(CCCCCCC(=O)Nc1ccccc1)NO [Vorinostat] (partner 1 µM)	0.795
C=C1C(=O)O[C@@H](CCCCCCCC)[C@@H]1C(=O)O [C-75] + COc1cccc2cc(-c3nc([C@H]4CC[C@H](C(=O)O)CC4)n4ncnc(N)c34)[nH]c12 [OSI-027] (partner 0.5 µM)	0.455
C=C1C(=O)O[C@@H](CCCCCCCC)[C@@H]1C(=O)O [C-75] + O=C(CCCCCCC(=O)Nc1ccccc1)NO [Vorinostat] (partner 1 µM)	0.653

# map each compound to its relative viability
1. Oc1nc(-c2ccc(C(F)(F)F)cc2)nc2c1CSCC2 [XAV939] + CC(C)C[C@H](NC(=O)[C@H](Cc1ccccc1)NC(=O)c1cnccn1)B(O)O [Bortezomib] (partner 0.002 µM)
2. Oc1nc(-c2ccc(C(F)(F)F)cc2)nc2c1CSCC2 [XAV939] + Cc1nc(Nc2ncc(C(=O)Nc3c(C)cccc3Cl)s2)cc(N2CCN(CCO)CC2)n1 [Dasatinib] (partner 0.075 µM)

1. 1.11
2. 0.512

====

# System: UMC-11
# testMethodNotes: relative viability (nuclei count vs DMSO), 5 days (fraction); higher = more cells survive
# conditionDescription: first compound 0.1 µM
experimentalEndpoint: relative viability
One number for each entry.

compound	relative viability
NC(=O)Nc1cc(-c2cccc(F)c2)sc1C(=O)N[C@H]1CCCNC1 [AZD7762] + CCNC(=O)c1noc(-c2cc(C(C)C)c(O)cc2O)c1-c1ccc(CN2CCOCC2)cc1 [Luminespib] (partner 0.01 µM)	1.09
NC(=O)Nc1cc(-c2cccc(F)c2)sc1C(=O)N[C@H]1CCCNC1 [AZD7762] + CC(=O)Nc1cccc(-n2c(=O)n(C3CC3)c(=O)c3c(Nc4ccc(I)cc4F)n(C)c(=O)c(C)c32)c1 [Trametinib] (partner 0.02 µM)	0.656
NC(=O)Nc1cc(-c2cccc(F)c2)sc1C(=O)N[C@H]1CCCNC1 [AZD7762] + Cc1nc(NC(=O)N2CCC[C@H]2C(N)=O)sc1-c1ccnc(C(C)(C)C(F)(F)F)c1 [Alpelisib] (partner 2 µM)	1.06
NC(=O)Nc1cc(-c2cccc(F)c2)sc1C(=O)N[C@H]1CCCNC1 [AZD7762] + Nc1ncn([C@H]2C[C@H](O)[C@@H](CO)O2)c(=O)n1 [Decitabine] (partner 2 µM)	0.598

Per the records, this compound ( NC(=O)Nc1cc(-c2cccc(F)c2)sc1C(=O)N[C@H]1CCCNC1 [AZD7762] + N=C(N)NC(=N)NCCc1ccccc1 [Phenformin] (partner 250 µM) ) has relative viability equal to 0.238

====

Field: relative viability. Provide a value for each of the molecules that follow.
# Test system: UMC-11
# testMethodNotes: relative viability (nuclei count vs DMSO), 5 days (fraction); higher = more cells survive
# conditionDescription: first compound 0.1581 µM
Answers are plain numbers.

molecule	relative viability
CC1(C)CCC(c2ccc(Cl)cc2)=C(CN2CCN(c3ccc(C(=O)NS(=O)(=O)c4ccc(N[C@H](CCN5CCOCC5)CSc5ccccc5)c(S(=O)(=O)C(F)(F)F)c4)cc3)CC2)C1 [Navitoclax] + Cc1cc(Nc2cc(N3CCN(C)CC3)nc(Sc3ccc(NC(=O)C4CC4)cc3)n2)n[nH]1 [Tozasertib] (partner 0.1 µM)	0.2

The recorded relative viability with UMC-11 for CC1(C)CCC(c2ccc(Cl)cc2)=C(CN2CCN(c3ccc(C(=O)NS(=O)(=O)c4ccc(N[C@H](CCN5CCOCC5)CSc5ccccc5)c(S(=O)(=O)C(F)(F)F)c4)cc3)CC2)C1 [Navitoclax] + N=C(N)NC(=N)NCCc1ccccc1 [Phenformin] (partner 250 µM) was 0.242

====

# Tested on: NCI-H647
# testMethodNotes: relative viability (nuclei count vs DMSO), 5 days (fraction); higher = more cells survive
# conditionDescription: first compound 0.8 µM
experimentalEndpoint: relative viability
Answers are plain numbers.

Hello, I would appreciate it if you could give relative viability for each entry below.
1. Oc1nc(-c2ccc(C(F)(F)F)cc2)nc2c1CSCC2 [XAV939] + CCNC(=O)c1noc(-c2cc(C(C)C)c(O)cc2O)c1-c1ccc(CN2CCOCC2)cc1 [Luminespib] (partner 0.01 µM)
2. Oc1nc(-c2ccc(C(F)(F)F)cc2)nc2c1CSCC2 [XAV939] + C[C@]1(O)C[C@@H](c2nc(-c3ccc4ccc(-c5ccccc5)nc4c3)c3c(N)nccn32)C1 [Linsitinib] (partner 1 µM)
3. C=C1C(=O)O[C@@H](CCCCCCCC)[C@@H]1C(=O)O [C-75] + Cc1cc(Nc2cc(N3CCN(C)CC3)nc(Sc3ccc(NC(=O)C4CC4)cc3)n2)n[nH]1 [Tozasertib] (partner 0.1 µM)
4. Oc1nc(-c2ccc(C(F)(F)F)cc2)nc2c1CSCC2 [XAV939] + Cc1nc(Nc2ncc(C(=O)Nc3c(C)cccc3Cl)s2)cc(N2CCN(CCO)CC2)n1 [Dasatinib] (partner 0.075 µM)
5. C=C1C(=O)O[C@@H](CCCCCCCC)[C@@H]1C(=O)O [C-75] + COc1cc2c(Oc3ccc(NC(=O)C4(C(=O)Nc5ccc(F)cc5)CC4)cc3F)ccnc2cc1OCCCN1CCOCC1 [Foretinib] (partner 0.25 µM)

[0.156, 1.06, 0.211, 0.201, 0.998]

====

# Tested on: NCI-H2405
# testMethodNotes: relative viability (nuclei count vs DMSO), 5 days (fraction); higher = more cells survive
# conditionDescription: first compound 1.265 µM
experimentalEndpoint: relative viability
Give bare numbers.

For each of the molecules below, note its relative viability.
1. O=C(O)c1ccc(-c2c[nH]c3ncc(-c4ccccc4)cc23)cc1C1CCCC1 + COc1cc2c(Oc3ccc(NC(=O)C4(C(=O)Nc5ccc(F)cc5)CC4)cc3F)ccnc2cc1OCCCN1CCOCC1 [Foretinib] (partner 0.25 µM)
2. O=C(O)c1ccc(-c2c[nH]c3ncc(-c4ccccc4)cc23)cc1C1CCCC1 + NC(=O)Nc1cc(-c2cccc(F)c2)sc1C(=O)N[C@H]1CCCNC1 [AZD7762] (partner 0.2 µM)
3. O=C(O)c1ccc(-c2c[nH]c3ncc(-c4ccccc4)cc23)cc1C1CCCC1 + O=C(c1cc(Cc2n[nH]c(=O)c3ccccc23)ccc1F)N1CCN(C(=O)C2CC2)CC1 [Olaparib] (partner 8 µM)
4. O=C(O)c1ccc(-c2c[nH]c3ncc(-c4ccccc4)cc23)cc1C1CCCC1 + Nc1nc2[nH]cc(CCc3ccc(C(=O)N[C@@H](CCC(=O)O)C(=O)O)cc3)c2c(=O)[nH]1 [Pemetrexed] (partner 0.2 µM)
5. O=C(O)c1ccc(-c2c[nH]c3ncc(-c4ccccc4)cc23)cc1C1CCCC1 + C[C@]1(O)C[C@@H](c2nc(-c3ccc4ccc(-c5ccccc5)nc4c3)c3c(N)nccn32)C1 [Linsitinib] (partner 1 µM)

0.747
0.583
0.584
0.648
0.603

====

# Test system: LC-2-ad
# testMethodNotes: relative viability (nuclei count vs DMSO), 5 days (fraction); higher = more cells survive
# conditionDescription: first compound 0.5 µM
What relative viability was measured for each of the following?
Give bare numbers.

compound	relative viability
CC1(C)CCC(c2ccc(Cl)cc2)=C(CN2CCN(c3ccc(C(=O)NS(=O)(=O)c4ccc(N[C@H](CCN5CCOCC5)CSc5ccccc5)c(S(=O)(=O)C(F)(F)F)c4)cc3)CC2)C1 [Navitoclax] + Nc1nc2[nH]cc(CCc3ccc(C(=O)N[C@@H](CCC(=O)O)C(=O)O)cc3)c2c(=O)[nH]1 [Pemetrexed] (partner 0.2 µM)	0.275
CC1(C)CCC(c2ccc(Cl)cc2)=C(CN2CCN(c3ccc(C(=O)NS(=O)(=O)c4ccc(N[C@H](CCN5CCOCC5)CSc5ccccc5)c(S(=O)(=O)C(F)(F)F)c4)cc3)CC2)C1 [Navitoclax] + Cc1nc(NC(=O)N2CCC[C@H]2C(N)=O)sc1-c1ccnc(C(C)(C)C(F)(F)F)c1 [Alpelisib] (partner 2 µM)	0.904

Please report relative viability for every entry that follows.
1. CC1(C)CCC(c2ccc(Cl)cc2)=C(CN2CCN(c3ccc(C(=O)NS(=O)(=O)c4ccc(N[C@H](CCN5CCOCC5)CSc5ccccc5)c(S(=O)(=O)C(F)(F)F)c4)cc3)CC2)C1 [Navitoclax] + O=C(CCCCCCC(=O)Nc1ccccc1)NO [Vorinostat] (partner 1 µM)
2. CC1(C)CCC(c2ccc(Cl)cc2)=C(CN2CCN(c3ccc(C(=O)NS(=O)(=O)c4ccc(N[C@H](CCN5CCOCC5)CSc5ccccc5)c(S(=O)(=O)C(F)(F)F)c4)cc3)CC2)C1 [Navitoclax] + CCNC(=O)c1noc(-c2cc(C(C)C)c(O)cc2O)c1-c1ccc(CN2CCOCC2)cc1 [Luminespib] (partner 0.01 µM)
3. CC1(C)CCC(c2ccc(Cl)cc2)=C(CN2CCN(c3ccc(C(=O)NS(=O)(=O)c4ccc(N[C@H](CCN5CCOCC5)CSc5ccccc5)c(S(=O)(=O)C(F)(F)F)c4)cc3)CC2)C1 [Navitoclax] + Cc1cc(Nc2cc(N3CCN(C)CC3)nc(Sc3ccc(NC(=O)C4CC4)cc3)n2)n[nH]1 [Tozasertib] (partner 0.1 µM)

1. 0.712
2. 0.856
3. 0.343

Provenance of the data: the supplement of paper PMC10307832
